# tested_system: GluA4 (Rattus norvegicus, UniProt P19493, L505Y/L672V)
# Sequence (P19493 21-902 L505Y/L672V): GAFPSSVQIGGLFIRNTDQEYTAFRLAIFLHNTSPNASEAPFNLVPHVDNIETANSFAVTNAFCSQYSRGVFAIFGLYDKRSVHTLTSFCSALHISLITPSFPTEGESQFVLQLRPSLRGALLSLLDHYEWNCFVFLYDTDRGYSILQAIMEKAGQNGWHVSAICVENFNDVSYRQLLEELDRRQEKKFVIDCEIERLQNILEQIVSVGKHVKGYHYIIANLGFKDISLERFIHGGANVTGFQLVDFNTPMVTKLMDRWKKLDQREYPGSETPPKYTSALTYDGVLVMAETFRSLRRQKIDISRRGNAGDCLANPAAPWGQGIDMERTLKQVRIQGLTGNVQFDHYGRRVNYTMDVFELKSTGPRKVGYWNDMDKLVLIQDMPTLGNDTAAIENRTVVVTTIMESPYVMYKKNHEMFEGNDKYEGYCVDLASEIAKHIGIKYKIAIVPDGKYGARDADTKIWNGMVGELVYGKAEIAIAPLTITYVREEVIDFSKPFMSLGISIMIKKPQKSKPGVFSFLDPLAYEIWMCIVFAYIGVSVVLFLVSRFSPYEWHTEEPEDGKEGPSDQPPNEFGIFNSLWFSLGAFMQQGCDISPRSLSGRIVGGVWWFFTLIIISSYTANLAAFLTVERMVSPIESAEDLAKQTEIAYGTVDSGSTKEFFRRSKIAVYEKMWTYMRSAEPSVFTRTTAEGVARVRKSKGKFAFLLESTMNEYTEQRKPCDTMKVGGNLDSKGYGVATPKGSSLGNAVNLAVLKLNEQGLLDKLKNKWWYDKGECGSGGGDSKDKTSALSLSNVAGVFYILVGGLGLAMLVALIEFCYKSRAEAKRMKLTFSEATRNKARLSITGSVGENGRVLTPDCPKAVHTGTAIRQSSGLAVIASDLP
# protocol_summary: whole-cell patch clamp in tsA201 cells, agonist dose-response
measurement_kind: EC50 (µM)
Please respond with the number in µM and leave the unit unwritten.

Look up EC50 for this compound: C=C(C)[C@H]1CN[C@H](C(=O)O)[C@H]1CC(=O)O [KA, kainate]
324
